Some molecules, each annotated with its measured ΔE (%) Light fastness.
procedure.details: Light fastness test of heat ray shielding film
Format: physicochemical
condition.context: xenon light 200 hours at 550 W/h, absorbance integrated 400 to 900 nm
Experimental: In the evaluation test, the release film was peeled from the produced heat ray shielding film, then the heat ray shielding film was compressed on a 5 cm×5 cm×3 mm (thickness) glass plate, and a test piece created in this way was used. For a light fastness test, the absorption spectrum of the test piece was measured using a spectrophotometer (produced by Hitachi, Ltd.: Spectrophotometer U-3500) and adopted as a spectrum before light fastness test. […]
Express your answer in %, writing the number without its unit.

| molecule | reported.endpoint | unit.abbreviation | numeric.readout |
| --- | --- | --- | --- |
| COc1cccc(OC)c1OCCCCc1ccc(CCCCOc2c(OC)cccc2OC)c2c1-c1nc-2nc2[n-]c(nc3nc(nc4[n-]c(n1)c1c(CCCCOc5c(OC)cccc5OC)ccc(CCCCOc5c(OC)cccc5OC)c41)-c1c(CCCCOc4c(OC)cccc4OC)ccc(CCCCOc4c(OC)cccc4OC)c1-3)c1c(CCCCOc3c(OC)cccc3OC)ccc(CCCCOc3c(OC)cccc3OC)c21.[O]=[V+2] | ΔE (%) Light fastness | % | 3 |

Okay, next one:
Assign ΔE (%) Light fastness to the following record: COCc1ccc(COC)c2c1-c1nc-2nc2[n-]c(nc3nc(nc4[n-]c(n1)c1c(COC)ccc(COC)c41)-c1c(COC)ccc(COC)c1-3)c1c(COC)ccc(COC)c21.[O]=[V+2] [Comparative Example Compound (a), reference compound]
33
